All figures here come from patent US9981945B2.

target: ΔF508 mutant CFTR (Homo sapiens, UniProt P13569, DEL508-508); construct: expressed in transfected cells; host or cells: Fischer rat thyroid (FRT) cells; assay: Fluorescence (YFP halide quenching) assay of ΔF508 mutant CFTR activity in FRT cells; assay type: cell-based; parameters: key: fold of mean activity with forskolin alone (I− quenching rate); conditions: FRT cells expressing ΔF508-CFTR and YFP-H148Q/I152L, rescued at 27° C. 20-24 h; forskolin 20 μM + test compound 20 μM for 20 min; I− influx rate normalized to forskolin alone
Sequence (P13569 with tags, fused parts or gaps DEL508-508): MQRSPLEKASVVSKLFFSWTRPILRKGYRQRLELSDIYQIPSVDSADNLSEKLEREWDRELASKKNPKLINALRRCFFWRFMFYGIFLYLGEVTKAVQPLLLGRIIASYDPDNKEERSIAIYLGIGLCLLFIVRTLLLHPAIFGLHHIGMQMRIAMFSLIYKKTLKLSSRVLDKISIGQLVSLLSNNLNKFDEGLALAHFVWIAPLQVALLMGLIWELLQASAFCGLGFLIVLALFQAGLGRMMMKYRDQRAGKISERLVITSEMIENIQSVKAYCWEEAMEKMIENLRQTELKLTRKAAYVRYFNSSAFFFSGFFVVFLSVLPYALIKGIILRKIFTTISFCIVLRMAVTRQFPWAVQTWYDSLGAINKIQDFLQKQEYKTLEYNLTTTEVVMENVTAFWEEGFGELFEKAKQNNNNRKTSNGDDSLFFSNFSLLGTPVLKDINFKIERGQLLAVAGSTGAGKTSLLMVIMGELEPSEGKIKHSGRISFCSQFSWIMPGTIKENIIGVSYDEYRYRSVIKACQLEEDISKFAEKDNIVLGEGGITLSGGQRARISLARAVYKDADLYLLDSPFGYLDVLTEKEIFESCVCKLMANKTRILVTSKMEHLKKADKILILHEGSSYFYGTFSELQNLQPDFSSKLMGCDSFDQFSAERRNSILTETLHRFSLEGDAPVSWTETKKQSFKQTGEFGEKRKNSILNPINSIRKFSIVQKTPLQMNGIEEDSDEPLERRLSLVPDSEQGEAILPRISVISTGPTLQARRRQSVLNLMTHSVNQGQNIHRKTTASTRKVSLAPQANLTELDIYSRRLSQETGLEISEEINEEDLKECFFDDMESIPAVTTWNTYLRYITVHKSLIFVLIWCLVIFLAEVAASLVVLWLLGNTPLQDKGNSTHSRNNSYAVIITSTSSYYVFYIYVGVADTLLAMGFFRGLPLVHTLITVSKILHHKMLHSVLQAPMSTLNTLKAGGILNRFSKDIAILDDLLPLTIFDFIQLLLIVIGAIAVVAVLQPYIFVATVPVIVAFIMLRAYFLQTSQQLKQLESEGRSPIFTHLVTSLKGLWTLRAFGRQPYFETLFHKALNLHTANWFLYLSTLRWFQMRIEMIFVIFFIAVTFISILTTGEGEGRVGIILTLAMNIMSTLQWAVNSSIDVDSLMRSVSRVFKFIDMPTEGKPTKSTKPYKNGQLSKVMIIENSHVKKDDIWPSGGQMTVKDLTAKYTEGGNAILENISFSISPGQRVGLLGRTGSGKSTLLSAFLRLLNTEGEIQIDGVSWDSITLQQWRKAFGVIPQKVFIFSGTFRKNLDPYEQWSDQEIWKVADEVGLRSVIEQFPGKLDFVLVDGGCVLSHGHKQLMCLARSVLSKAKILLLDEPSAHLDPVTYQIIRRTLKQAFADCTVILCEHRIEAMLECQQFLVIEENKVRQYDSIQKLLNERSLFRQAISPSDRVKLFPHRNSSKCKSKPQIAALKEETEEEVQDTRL
observation_type: CFTR Activity
Format: numeric value only, no unit, no commentary.

These solved cases illustrate the format of a correct answer.
molecule: CC(C)(O)CCCOc1ncncc1NC(=O)c1ccc(F)c(-c2c(F)cccc2F)n1
CFTR Activity: 0.1

molecule: Cl.O=C(Nc1cncnc1OC1CCCNCC1)c1ccc(C(F)(F)F)c(-c2c(F)cccc2F)n1 (stereo not shown)
CFTR Activity: 2.4

molecule: Cl.NC1CCC(Oc2ncncc2NC(=O)c2ccc(F)c(-c3c(F)cccc3F)n2)CC1 (stereo not shown)
CFTR Activity: 1.9

Now for the molecule whose CFTR Activity we want.
# molecule `Cl.O=C(Nc1cncnc1OC1CCNCC1)c1ccc(F)c(-c2ccncc2)n1` ; its CFTR Activity = 0.5

----------
# reported CFTR Activity; entries follow
target: ΔF508 mutant CFTR (Homo sapiens, UniProt P13569, DEL508-508); construct: expressed in transfected cells; host or cells: Fischer rat thyroid (FRT) cells; assay: Fluorescence (YFP halide quenching) assay of ΔF508 mutant CFTR activity in FRT cells; assay type: cell-based; parameters: key: fold of mean activity with forskolin alone (I− quenching rate); conditions: FRT cells expressing ΔF508-CFTR and YFP-H148Q/I152L, rescued at 27° C. 20-24 h; forskolin 20 μM + test compound 20 μM for 20 min; I− influx rate normalized to forskolin alone
Structures can show the parent of a compound that is named as a salt.
Could you keep your reply to the number by itself?

Data point: `Cl.N[C@H]1CC[C@H](Oc2ncncc2NC(=O)c2ccc(C(F)(F)F)c(-c3c(F)cccc3F)n2)CC1` ; CFTR Activity = 3.2

// CFTR Activity value for Cl.O=C(Nc1cncnc1OC1CCCNCC1)c1ccc(F)c(-c2c(F)cccc2F)n1 (centres unmarked) : 1.9

// sample `Cl.NCCCCOc1ncncc1NC(=O)c1ccc(F)c(-c2c(F)cccc2F)n1` , its CFTR Activity was 0.5

// recorded CFTR Activity for NCC(CCl)Oc1ncncc1NC(=O)c1ccc(F)c(-c2c(F)cccc2F)n1 (centres unmarked) [Example 29, hydrochloride] : 1.8

Item: `Cl.Nc1cc(F)c(-c2c(F)cccc2F)nc1C(=O)Nc1cncnc1OC1CCNCC1` | CFTR Activity: 3.1

----------
# reported CFTR Activity; entries follow
molecular target: ΔF508 mutant CFTR (Homo sapiens, UniProt P13569, DEL508-508); construct: expressed in transfected cells; host or cells: Fischer rat thyroid (FRT) cells; assay: Fluorescence (YFP halide quenching) assay of ΔF508 mutant CFTR activity in FRT cells; type: cell-based; parameters: key: fold of mean activity with forskolin alone (I− quenching rate); settings: FRT cells expressing ΔF508-CFTR and YFP-H148Q/I152L, rescued at 27° C. 20-24 h; forskolin 20 μM + test compound 20 μM for 20 min; I− influx rate normalized to forskolin alone
When you answer, write just the number.

Past entries and their recorded results:
compound: Cl.O=C(Nc1cncnc1OCC1CNC1)c1ccc(F)c(-c2c(F)cccc2F)n1
CFTR Activity: 0.5
//
compound: Cl.O=C(Nc1cncnc1OC1CCNC1)c1ccc(F)c(-c2c(F)cccc2F)n1 (stereo not drawn)
CFTR Activity: 0.7
//
compound: Cl.Nc1cc(F)c(-c2c(F)cccc2F)nc1C(=O)Nc1cncnc1OCC1CNC1
CFTR Activity: 1.0
//
compound: Cl.Nc1cc(F)c(-c2c(F)cccc2F)nc1C(=O)Nc1cncnc1OC1CCCNCC1 (stereo not drawn)
CFTR Activity: 4.0
//
compound: CNCCCOc1ncncc1NC(=O)c1ccc(F)c(-c2c(F)cccc2F)n1.Cl
CFTR Activity: 0.5
//
compound: CN(C)CCCOc1ncncc1NC(=O)c1ccc(F)c(-c2c(F)cccc2F)n1.Cl
CFTR Activity: 0.2
//
compound: Cl.Nc1cc(F)c(-c2c(F)cccc2F)nc1C(=O)Nc1cncnc1OCC1CCCNC1 (stereo not drawn)
CFTR Activity: 2.1
//
compound: Cl.O=C(Nc1cncnc1OCC1CNC1)c1ccc(C(F)(F)F)c(-c2c(F)cccc2F)n1
CFTR Activity: 1.8

Reported CFTR Activity ( Cl.O=C(Nc1cncnc1OCC1CCCNC1)c1ccc(F)c(-c2c(F)cccc2F)n1 (stereo not drawn) ) = 0.5

Record COc1cccc(F)c1-c1nc(C(=O)Nc2cncnc2OC2CCCNCC2)ccc1F.Cl (stereo not drawn) . Reported CFTR Activity: 1.8

Briefly, CFTR Activity measured for `Cl.O=C(Nc1cncnc1OCC1CCNCC1)c1ccc(F)c(-c2c(F)cccc2F)n1` : 1.2

Record Cl.Nc1cc(F)c(-c2c(F)cccc2F)nc1C(=O)Nc1cncnc1OC1CCCC(N)C1 (stereo not drawn) . Reported CFTR Activity: 4.1

Measured CFTR Activity of Cl.Nc1cc(C(F)(F)F)c(-c2c(F)cccc2F)nc1C(=O)Nc1cncnc1OC1CCCNCC1 (stereo not drawn) : 4.1

----------
target: ΔF508 mutant CFTR (Homo sapiens, UniProt P13569, DEL508-508); construct: expressed in transfected cells; host or cells: Fischer rat thyroid (FRT) cells; test: Fluorescence (YFP halide quenching) assay of ΔF508 mutant CFTR activity in FRT cells; format: cell-based; set-up: key: fold of mean activity with forskolin alone (I− quenching rate); conditions: FRT cells expressing ΔF508-CFTR and YFP-H148Q/I152L, rescued at 27° C. 20-24 h; forskolin 20 μM + test compound 20 μM for 20 min; I− influx rate normalized to forskolin alone
The molecules listed here are annotated with their CFTR Activity.

Here are 2 molecules together with their reported answers.
molecule: Cl.Nc1cc(F)c(-c2ccccc2)nc1C(=O)Nc1cncnc1OC1CCNC1 (stereo not shown)
tested_on: ΔF508 mutant CFTR (Homo sapiens, UniProt P13569, DEL508-508)
CFTR Activity: 1.1
//
molecule: O=C(Nc1cncnc1OCC1CCOCC1)c1ccc(F)c(-c2c(F)cccc2F)n1
tested_on: ΔF508 mutant CFTR (Homo sapiens, UniProt P13569, DEL508-508)
CFTR Activity: 0.1

Notebook: `Cl.O=C(Nc1cncnc1OC1CCNCC1)c1ccc(F)c(-c2c(F)cccc2F)n1` , CFTR Activity read as 1.3

Value of CFTR Activity reported for the molecule Cl.Nc1cc(C(F)(F)F)c(-c2c(F)cccc2F)nc1C(=O)Nc1cncnc1OC1CCCC(N)C1 (stereo not shown) is 4.2

Form: molecule = Cl.NCC(CCl)COc1ncncc1NC(=O)c1ccc(C(F)(F)F)c(-c2c(F)cccc2F)n1 (stereo not shown) ; CFTR Activity = 2.0

Input `Cl.O=C(Nc1cncnc1OC1CNC1)c1ccc(F)c(-c2c(F)cccc2F)n1` . Output CFTR Activity: 0.4

The recorded CFTR Activity for Cl.NC1CCCC(Oc2ncncc2NC(=O)c2ccc(F)c(-c3c(F)cccc3F)n2)C1 (stereo not shown) is 3.0

----------
Target: ΔF508 mutant CFTR (Homo sapiens, UniProt P13569, DEL508-508)
Construct: expressed in transfected cells; host or cells: Fischer rat thyroid (FRT) cells
Test: Fluorescence (YFP halide quenching) assay of ΔF508 mutant CFTR activity in FRT cells
Type: cell-based
Set-up: key: fold of mean activity with forskolin alone (I− quenching rate)
Details: FRT cells expressing ΔF508-CFTR and YFP-H148Q/I152L, rescued at 27° C. 20-24 h; forskolin 20 μM + test compound 20 μM for 20 min; I− influx rate normalized to forskolin alone
Text: The ΔF508 mutant CFTR activities of the CFTR modulators are detected using the Fluorescence Assay developed by Pedemonte (Pedemonte N., et al., Antihypertensive 1,4-dihydropyridines as correctors of the cystic fibrosis transmembrane conductance regulator channel gating defect caused by cystic fibrosis mutations, Mol. Pharmacol., 2005, 68, 1736-1746). Fischer rat thyroid (FRT) cells, stably transfected with ΔF508 were retransfected with the YFP-H148Q/I152L fluorescent protein. […]
Entries are grouped by CFTR Activity into these classes: low bracket (below 0.6), middle bracket (0.6 to below 3), high bracket (3 or more)

Solved entries (count: 5):
molecule: Cl.Nc1cc(C(F)(F)F)c(-c2c(F)cccc2F)nc1C(=O)Nc1cncnc1OCC1CCNCC1 [Example 49]
category: high bracket
--
molecule: Cl.Nc1cc(F)c(-c2c(F)cccc2F)nc1C(=O)Nc1cncnc1OCC1CCNC1 (stereo not drawn) [Example 28]
category: middle bracket
--
molecule: Cl.NCC(CCl)COc1ncncc1NC(=O)c1nc(-c2c(F)cccc2F)c(C(F)(F)F)cc1N (stereo not drawn) [Example 55]
category: high bracket
--
molecule: O=C(Nc1cncnc1OCC1CCOCC1)c1ccc(C(F)(F)F)c(-c2c(F)cccc2F)n1 [Example 47]
category: low bracket
--
molecule: Cl.Nc1cc(F)c(-c2c(F)cccc2F)nc1C(=O)Nc1cncnc1OC1CNC1 [Example 31]
category: middle bracket

Turning now to a further record.
// query Sort CC(O)CCOc1ncncc1NC(=O)c1ccc(F)c(-c2c(F)cccc2F)n1 (stereo not drawn) [Example 18] into one of the categories.
// result low bracket
